# Tested target: CDK9/T1 (Homo sapiens)
# Sequence (P50750 whole entry): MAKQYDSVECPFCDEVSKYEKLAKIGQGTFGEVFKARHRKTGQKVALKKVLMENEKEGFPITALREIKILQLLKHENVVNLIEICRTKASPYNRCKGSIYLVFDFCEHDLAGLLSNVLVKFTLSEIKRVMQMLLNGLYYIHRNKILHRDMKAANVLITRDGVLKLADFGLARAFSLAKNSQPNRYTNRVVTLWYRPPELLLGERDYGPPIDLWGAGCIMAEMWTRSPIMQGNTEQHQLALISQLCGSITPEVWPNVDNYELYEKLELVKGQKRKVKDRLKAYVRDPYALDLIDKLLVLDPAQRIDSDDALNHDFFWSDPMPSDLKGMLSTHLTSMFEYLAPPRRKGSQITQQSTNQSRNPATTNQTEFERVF
# Sequence (O60563 whole entry partner): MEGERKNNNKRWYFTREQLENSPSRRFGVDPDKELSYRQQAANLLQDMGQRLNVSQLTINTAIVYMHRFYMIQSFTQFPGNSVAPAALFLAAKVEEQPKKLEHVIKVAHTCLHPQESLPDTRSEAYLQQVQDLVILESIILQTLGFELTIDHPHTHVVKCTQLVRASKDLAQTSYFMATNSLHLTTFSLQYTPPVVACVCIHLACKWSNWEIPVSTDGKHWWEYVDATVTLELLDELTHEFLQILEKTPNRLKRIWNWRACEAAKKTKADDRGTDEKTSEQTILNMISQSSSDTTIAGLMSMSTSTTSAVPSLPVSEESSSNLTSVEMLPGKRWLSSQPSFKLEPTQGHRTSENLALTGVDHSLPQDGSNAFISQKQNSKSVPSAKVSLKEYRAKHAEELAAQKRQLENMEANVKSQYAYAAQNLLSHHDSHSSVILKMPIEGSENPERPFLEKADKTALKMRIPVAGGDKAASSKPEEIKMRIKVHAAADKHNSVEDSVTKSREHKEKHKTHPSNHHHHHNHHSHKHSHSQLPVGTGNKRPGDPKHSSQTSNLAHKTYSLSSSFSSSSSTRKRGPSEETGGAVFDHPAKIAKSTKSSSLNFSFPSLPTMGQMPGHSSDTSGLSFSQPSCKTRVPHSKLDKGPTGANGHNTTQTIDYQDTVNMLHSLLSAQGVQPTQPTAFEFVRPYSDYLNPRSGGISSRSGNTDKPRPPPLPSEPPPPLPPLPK
# Protocol text: ADP Glo Kinase assay CDK9/T1
# Assay type: biochemical
# Test conditions: CDK9T1; read-out: CDK inhibition, Ki (μM) CDK9T1
// reported log10 Ki per item
Would you kindly interpret these values as log10 of Ki expressed in µM?

Recorded log10 Ki, per entry:
{"Molecule": "Cc1cnc(N[C@H]2CC[C@H](N)CC2)nc1-c1cnc2ccc(Nc3cccnn3)cn12 [Compound 71]", "Assay endpoint": "log10 Ki", "Recorded measurement": -0.69}
{"Molecule": "Cc1ccc(Nc2ccc3ncc(-c4nc(N[C@H]5CC[C@H](N)CC5)ncc4C)n3c2)cn1 [Compound 69]", "Assay endpoint": "log10 Ki", "Recorded measurement": -1.64}

I am curious: what log10 Ki value has been reported for N[C@H]1CC[C@H](Nc2ncc(F)c(-c3cnc4ccc(-c5ccc(CN6CCOCC6)cc5)cn34)n2)CC1 [Compound 47] ? -2.40

I'd like to know its log10 Ki. The molecule in question is Fc1cnc(NC2CCNCC2)nc1-c1cnc2ccccn12 [Compound 21] -1.16

Any idea what its log10 Ki is? The molecule is N[C@H]1CC[C@H](Nc2ncc(F)c(-c3cnc4ccc(Nc5cncnc5)cn34)n2)CC1 [Compound 50] -2.52

Which log10 Ki value belongs to CN1CCC(N[C@H]2CC[C@H](Nc3ncc(F)c(-c4cnc5ccc(-c6ccccc6)cn45)n3)CC2)CC1 [Compound 160] ? -1.85

Record request: log10 Ki value, item N[C@H]1CC[C@H](Nc2ncc(F)c(-c3cnc4ccc(NC(=O)Cc5ccccc5)cn34)n2)CC1 [Compound 52] -1.89

What log10 Ki value was documented for this molecule, N[C@H]1CC[C@H](Nc2ncc(Cl)c(-c3cnc4cc(-c5cccnc5)ccn34)n2)CC1 [Compound 78] ? -1.72
